Reported Caco‐2 permeability recovery A2B values for the following molecules.
Tested on: Caco-2 cells
protocol_text: Cellular permeability assay utilizing Caco2 cell line
assay_context: A2B; 10 µM; 120 min

[
  {
    "molecule": "CCCC=Cc1ccc2c(c1)C(=O)C1(CC=C(C)C)OC1C2O (stereo not drawn) [ent‐35]",
    "Caco‐2 permeability recovery A2B": "37.2%"
  },
  {
    "molecule": "CCC/C=C/c1cc2c(cn1)[C@H](O)[C@H]1O[C@@]1(CC=C(C)C)C2=O",
    "Caco‐2 permeability recovery A2B": "42.1%"
  },
  {
    "molecule": "CC(C)=CCC12OC1C(O)c1ccccc1C2=O (stereo not drawn) [compound 2, (−)‐avicennone C, reference compound]",
    "Caco‐2 permeability recovery A2B": "86.7%"
  },
  {
    "molecule": "CCCC=Cc1cc2c(cn1)C(O)C1OC1(CC=C(C)C)C2=O (stereo not drawn) [ent‐27]",
    "Caco‐2 permeability recovery A2B": "8.69%"
  },
  {
    "molecule": "CC(C)=CCC12OC1C(O)c1ccccc1C2=O (stereo not drawn) [ent‐37]",
    "Caco‐2 permeability recovery A2B": "81.3%"
  },
  {
    "molecule": "CCC/C=C/c1cc2c(cn1)[C@@H](O)[C@H]1O[C@@]1(CC=C(C)C)C2=O",
    "Caco‐2 permeability recovery A2B": "10.1%"
  },
  {
    "molecule": "CCCC=Cc1cc2c(cn1)C(O)C1OC1(CC=C(C)C)C2=O (stereo not drawn) [ent‐4]",
    "Caco‐2 permeability recovery A2B": "23.4%"
  },
  {
    "molecule": "CCCC=Cc1ccc2c(c1)C(=O)C1(CC=C(C)C)OC1C2O (stereo not drawn) [ent‐36]",
    "Caco‐2 permeability recovery A2B": "14.3%"
  },
  {
    "molecule": "CC(C)=CCC12OC1C(O)c1ccccc1C2=O (centres unmarked) [compound 38]",
    "Caco‐2 permeability recovery A2B": "127%"
  },
  {
    "molecule": "CCCC=Cc1ccc2c(c1)C(=O)C1(CC=C(C)C)OC1C2O (centres unmarked) [compound 35]",
    "Caco‐2 permeability recovery A2B": "76.0%"
  },
  {
    "molecule": "CC(C)=CCC12OC1C(O)c1ccccc1C2=O (centres unmarked) [compound 37]",
    "Caco‐2 permeability recovery A2B": "74.8%"
  }
]
